B1: NEUROD6 (parent)
chain: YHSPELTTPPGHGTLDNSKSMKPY

- Variants of: B1
- Assay Procedure: protein stability index of a GFP-peptide fusion (GPS, HEK-293T) (PSI 1-6); higher = more stable;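 further: lentivirally expressed fusions sorted by FACS into six bins by GFP to DsRed ratio, PSI derived from sequencing read proportions per bin multiplied by bin number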
- Condition Details: c terminus: a fixed tail appended
Kindly state protein stability index for each of the entries shown.
Number, no unit, nothing else.

// query Please look up its protein stability index: `YHSPELTTPPKHGTLDNSKSMKPY`
// result 2.5

// query Could you share which protein stability index value was measured for `YNSPELTTPPGHGTLDNSKSMKPY` ?
// result 4.71

// query protein stability index lookup needed for `YHSPELTTPPGHGTLDNPKSMKPY` , thanks.
// result 2.17

// query // returns reported protein stability index for input `YHSPELTIPPGHGTLDNSKSMKPY`
// result 2.12

// query State the recorded protein stability index for this entry: `YHSPELTTPPGHGTLDNSCSMKPY`
// result 2.05

// query Can you share its protein stability index? I mean this variant: `YHSPELTTPPGHGTEDNSKSMKPY`
// result 2.12
